Hello, the source for this data is the supplement of paper PMC11061612, in case you need it.

# System: A2058 (Melanoma)
# test_details: combination Emax (second highest fraction inhibited in the dose matrix, 72 h); higher = more inhibition; extreme values may be limits of the assay
reported_property: combination Emax
Answers are plain numbers.

molecule	measured_target	combination Emax
Cc1c2c(nn1C)CSCc1cc(n(C)n1)CSc1cc(c3ccccc3c1)OCCCc1c(C(=O)O)n(C)c3c-2c(Cl)ccc13 [AZD5991] + C=CCn1c(=O)c2cnc(Nc3ccc(N4CCN(C)CC4)cc3)nc2n1-c1cccc(C(C)(C)O)n1 [AZD1775] (first compound max 1 µM, partner max 1 µM)	A2058 (Melanoma)	0.892
CN(CCO)CC[C@H](CSc1ccccc1)Nc1ccc(S(=O)(=O)NC(=O)c2ccc(N3CCC([C@@H](O)c4ccccc4-c4ccc(Cl)cc4)CC3)cc2)cc1S(=O)(=O)C(F)(F)F [AZD4320] + C[C@@H](Nc1cc(F)cc(F)c1)c1cc(C(=O)N(C)C)cc2c(=O)cc(N3CCOCC3)oc12 [AZD8186] (first compound max 1 µM, 7x7, partner max 3 µM)	A2058 (Melanoma)	0.765

For every listed record, write down its combination Emax.
1. Cc1cc2ncnn2cc1Nc1ncc2c(n1)n(C1CCOCC1)c(=O)n2C [AZD7648] + CCN(CCO)CCCOc1ccc2c(Nc3cc(CC(=O)Nc4cccc(F)c4)[nH]n3)ncnc2c1 [AZD2811] (first compound max 10 µM, 7x7, partner max 1 µM)
2. CC(=O)c1c(C)c2cnc(Nc3ccc(N4CCNCC4)cn3)nc2n(C2CCCC2)c1=O [Palbociclib] + Cn1cnc2c(F)c(Nc3ccc(Br)cc3Cl)c(C(=O)NOCCO)cc21 [Selumetinib] (first compound max 10 µM, 7x7, partner max 10 µM)
3. Cc1cc2ncnn2cc1Nc1ncc2c(n1)n(C1CCOCC1)c(=O)n2C [AZD7648] + CN(C)CCCOc1ccc(-c2ccc3ncc4c(c3c2)n(C2CCOCC2)c(=O)n4C)cn1 [AZD0156] (first compound max 10 µM, 7x7, partner max 1 µM)
4. COc1cccc(OCCCN)c1-c1cc(Nc2cnc(C#N)cn2)n[nH]1 [Prexasertib] + Cc1cc2ncnn2cc1Nc1ncc2c(n1)n(C1CCOCC1)c(=O)n2C [AZD7648] (first compound max 1 µM, 7x7, partner max 10 µM)
5. CN(CCO)CC[C@H](CSc1ccccc1)Nc1ccc(S(=O)(=O)NC(=O)c2ccc(N3CCC([C@@H](O)c4ccccc4-c4ccc(Cl)cc4)CC3)cc2)cc1S(=O)(=O)C(F)(F)F [AZD4320] + C1CN(CCC1(C(=O)N[C@@H](CCO)C2=CC=C(C=C2)Cl)N)C3=NC=NC4=C3C=CN4 [Capivasertib] (first compound max 1 µM, 7x7, partner max 3 µM)

Output:
[0.247, 0.47, 0.182, 0.444, 0.191]
